Target: Hepcidin (Homo sapiens) (UniProt P81172)
Sequence (P81172 60-84 limits assumed): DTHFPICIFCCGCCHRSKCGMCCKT
Assay: Inhibition of human hepcidin-stimulated recombinant C-terminal Halo-tagged human FPN internalization in MDCK cells at 10 uM incubated for 15 to 20 mins by Halo-tagged TMR based fluorescence assay relative to control
Type: cell-based
inhibition listing for selected compounds.

smiles_notation=Oc1cccc(/C=N/Nc2cc(N3CCOCC3)nc(N3CCOCC3)n2)c1 assayed_system="Hepcidin (Homo sapiens) (UniProt P81172)" endpoint_result="> 50%"

Note to self: inhibition of "Cc1nc(N/N=C/c2ccc(O)cc2O)cc(N2CCOCC2)n1" with Hepcidin (Homo sapiens) (UniProt P81172) was > 50%

Note to self: inhibition of "Cc1ccc2cc(Nc3nc(N4CCOCC4)nc(N4CCOCC4)n3)ccc2n1" with Hepcidin (Homo sapiens) (UniProt P81172) was < 50%

Note to self: inhibition of "Cc1nc(-c2ccccn2)nc(NCCNc2cc(C(F)(F)F)ccn2)c1Cl" with Hepcidin (Homo sapiens) (UniProt P81172) was < 50%

Note to self: inhibition of "C/C(=N\Nc1cc(N2CCOCC2)nc(C)n1)c1ccc(F)cc1" with Hepcidin (Homo sapiens) (UniProt P81172) was < 50%

Note to self: inhibition of "COc1cnc(-c2ccccn2)nc1NC(C)C" with Hepcidin (Homo sapiens) (UniProt P81172) was > 50%
